CC50 at 48 h values for the molecules below.
- assayComment: Cytotoxicity on uninfected Huh-7 cells (WST-8, crystal violet)
- experimentalContext: human, uninfected Huh-7 cells

# molecule, measurementUnits, boundOperator, CC50 at 48 h
measured = [
    ("O=C(NCCN1CCN(c2ccc(Cl)cc2)CC1)c1[nH]c2c(c1Cl)CCCc1ccccc1-2", "µM", "=", 62.6),
    ("O=C(NCCN1CCN(c2ccc(Cl)cc2)CC1)c1c(Cl)[nH]c2c1CCCc1ccccc1-2", "µM", "=", 57.9),
    ("O=C(NCCN1CCN(c2ccccc2)CC1)c1[nH]c2c(c1Cl)CCCc1ccccc1-2", "µM", "<", 50),
    ("O=C(NCCN1CCN(c2ccc(Cl)c(Cl)c2)CC1)c1c(Cl)[nH]c2c1CCCc1ccccc1-2", "µM", "=", 12),
    ("N#Cc1ccccc1N1CCN(CCNC(=O)c2c(Cl)[nH]c3c2CCCc2ccccc2-3)CC1", "µM", "=", 15.5),
    ("COc1cccc(N2CCN(CCNC(=O)c3[nH]c4c(c3Cl)CCCc3ccccc3-4)CC2)c1", "µM", "=", 53.5),
    ("CCOc1ccccc1N1CCN(CCNC(=O)c2[nH]c3c(c2Cl)CCCc2ccccc2-3)CC1", "µM", "=", 50.7),
    ("CCN1CCC[C@H]1CNC(=O)c1[nH]c2c(c1Cl)CCCc1ccccc1-2", "µM", "=", 3.88),
    ("CC(C)OC(=O)[C@H](C)N[P@](=O)(OC[C@H]1O[C@@H](n2ccc(=O)[nH]c2=O)[C@](C)(F)[C@@H]1O)Oc1ccccc1 [sofosbuvir, reference compound]", "µM", "=", 300),
    ("O=C(NCCCN1CCN(Cc2ccccc2)CC1)c1c(Cl)[nH]c2c1CCCc1ccccc1-2", "µM", "=", 6.23),
    ("O=C(NCCN1CCN(c2ccccc2Cl)CC1)c1[nH]c2c(c1Cl)CCCc1ccccc1-2", "µM", "=", 59.9),
    ("O=C(NCCCN1CCN(c2ccccc2)CC1)c1cc2c([nH]1)-c1ccccc1CCC2", "µM", "=", 12.4),
    ("O=C(NCCN1CCN(c2ccccc2)CC1)c1c(Cl)[nH]c2c1CCCc1ccccc1-2", "µM", "=", 34.2),
    ("O=C(NCCN1CCN(c2ccccc2Cl)CC1)c1c(Cl)[nH]c2c1CCCc1ccccc1-2", "µM", "=", 30.2),
    ("COc1ccccc1N1CCN(CCNC(=O)c2c(Cl)[nH]c3c2CCCc2ccccc2-3)CC1", "µM", "=", 9.43),
    ("COc1ccccc1N1CCN(CCNC(=O)c2[nH]c3c(c2Cl)CCCc2ccccc2-3)CC1", "µM", "=", 24.3),
]

---

inhibition at 10 µM values for the compounds below.
- Test system: RXF 393 (renal cancer cell line)
- assayComment: NCI-60 single-dose assay
- Format: cell-based, human
- experimentalContext: Homo sapiens, RXF 393, read-out: growth inhibition (GI%) and cytotoxicity (negative values)
metricName: inhibition at 10 µM (%)

# smilesRepresentation, metricName, measurementUnits, boundOperator, valueReported
measured = [
    ("CCOc1ccccc1N1CCN(CCNC(=O)c2c(Cl)[nH]c3c2CCCc2ccccc2-3)CC1", "inhibition at 10 µM", "%", "=", 62.1),
    ("COc1ccccc1N1CCN(CCNC(=O)c2c(Cl)[nH]c3c2CCCc2ccccc2-3)CC1", "inhibition at 10 µM", "%", "<", 60),
    ("O=C(NCCCN1CCN(Cc2ccccc2)CC1)c1c(Cl)[nH]c2c1CCCc1ccccc1-2", "inhibition at 10 µM", "%", "=", 78.2),
    ("CCN1CCC[C@H]1CNC(=O)c1[nH]c2c(c1Cl)CCCc1ccccc1-2", "inhibition at 10 µM", "%", "=", 79.7),
    ("COc1ccccc1N1CCN(CCNC(=O)c2[nH]c3c(c2Cl)CCCc2ccccc2-3)CC1", "inhibition at 10 µM", "%", "=", 89.4),
    ("N#Cc1ccccc1N1CCN(CCNC(=O)c2c(Cl)[nH]c3c2CCCc2ccccc2-3)CC1", "inhibition at 10 µM", "%", "<", 60),
]

---

- Test system: CAKI-1 (renal cancer cell line)
- assayComment: NCI-60 single-dose assay
- Format: cell-based, human
- experimentalContext: Homo sapiens, CAKI-1, read-out: growth inhibition (GI%) and cytotoxicity (negative values)
inhibition at 10 µM values for the compounds below.

# compound, inhibition at 10 µM, %
records = [
    ("COc1ccccc1N1CCN(CCNC(=O)c2[nH]c3c(c2Cl)CCCc2ccccc2-3)CC1 [Compound 5]", 77.9),
    ("O=C(NCCCN1CCN(c2ccccc2)CC1)c1cc2c([nH]1)-c1ccccc1CCC2 [Compound 10]", 89.4),
    ("O=C(NCCCN1CCN(Cc2ccccc2)CC1)c1c(Cl)[nH]c2c1CCCc1ccccc1-2 [Compound 20]", 84.7),
    ("CCOc1ccccc1N1CCN(CCNC(=O)c2c(Cl)[nH]c3c2CCCc2ccccc2-3)CC1 [Compound 17]", 71.6),
    ("N#Cc1ccccc1N1CCN(CCNC(=O)c2c(Cl)[nH]c3c2CCCc2ccccc2-3)CC1 [Compound 18]", 62.7),
    ("COc1ccccc1N1CCN(CCNC(=O)c2c(Cl)[nH]c3c2CCCc2ccccc2-3)CC1 [Compound 15]", 61),
]

---

- System: MDCK cells
- assayComment: Cytotoxicity on uninfected MDCK cells (WST-8, crystal violet)
- experimentalContext: read-out: IAV/MDCK CC50; preliminary screening (50, 5, 0.5 μM), MDCK

# compound, assayedTarget, CC50
rows = [
    ("O=c1nc(NO)ccn1[C@@H]1O[C@H](CO)[C@@H](O)[C@H]1O [EIDD-1931, reference compound]", "MDCK cells", "< 50 µM"),
]

---

- System: MDA-MB-468 (breast cancer cell line)
- assayComment: NCI-60 single-dose assay
- Type: cell-based, human
- experimentalContext: Homo sapiens, MDA-MB-468, read-out: growth inhibition (GI%) and cytotoxicity (negative values)
inhibition at 10 µM values for the compounds below.

# smilesRepresentation, inhibition at 10 µM / %
rows = [
    ("O=C(NCCN1CCN(c2ccc(Cl)c(Cl)c2)CC1)c1c(Cl)[nH]c2c1CCCc1ccccc1-2", 94.2),
    ("O=C(NCCN1CCN(c2ccccc2Cl)CC1)c1c(Cl)[nH]c2c1CCCc1ccccc1-2", 82.4),
    ("N#Cc1ccccc1N1CCN(CCNC(=O)c2c(Cl)[nH]c3c2CCCc2ccccc2-3)CC1", 98.7),
    ("O=C(NCCN1CCN(c2ccc(Cl)cc2)CC1)c1c(Cl)[nH]c2c1CCCc1ccccc1-2", 95.3),
    ("COc1ccccc1N1CCN(CCNC(=O)c2c(Cl)[nH]c3c2CCCc2ccccc2-3)CC1", 94.8),
]

---

inhibition at 10 µM values for the compounds below.
- Tested on: M14 (melanoma cell line)
- assayComment: NCI-60 single-dose assay
- Type: cell-based, human
- experimentalContext: Homo sapiens, M14, read-out: growth inhibition (GI%) and cytotoxicity (negative values)

# smilesRepresentation, boundOperator, inhibition at 10 µM [%]
rows = [
    ("O=C(NCCN1CCN(c2ccccc2)CC1)c1c(Cl)[nH]c2c1CCCc1ccccc1-2", "<", 60),
    ("CCOc1ccccc1N1CCN(CCNC(=O)c2[nH]c3c(c2Cl)CCCc2ccccc2-3)CC1", "=", 88.6),
    ("COc1ccccc1N1CCN(CCNC(=O)c2c(Cl)[nH]c3c2CCCc2ccccc2-3)CC1", "=", 84.8),
]

---

- Tested on: HL-60(TB) (leukemia cell line)
- assayComment: NCI-60 single-dose assay
- Assay type: cell-based, human
- experimentalContext: human
growth inhibition (GI%) and cytotoxicity (negative values) values for the compounds below.
metricName: growth inhibition (GI%) and cytotoxicity (negative values)

# compound, valueReported
measured = [
    ("CCOc1ccccc1N1CCN(CCNC(=O)c2c(Cl)[nH]c3c2CCCc2ccccc2-3)CC1 [Compound 17]", "−8.21"),
    ("O=C(NCCCN1CCN(Cc2ccccc2)CC1)c1c(Cl)[nH]c2c1CCCc1ccccc1-2 [Compound 20]", "−23.10"),
    ("COc1ccccc1N1CCN(CCNC(=O)c2[nH]c3c(c2Cl)CCCc2ccccc2-3)CC1 [Compound 5]", "−8.91"),
    ("O=C(NCCCN1CCN(c2ccccc2)CC1)c1cc2c([nH]1)-c1ccccc1CCC2 [Compound 10]", "−30.92"),
    ("CCN1CCC[C@H]1CNC(=O)c1[nH]c2c(c1Cl)CCCc1ccccc1-2 [Compound 1]", "−38.55"),
]

---

- System: SK-MEL-5 (melanoma cell line)
- assayComment: NCI-60 single-dose assay
- Assay type: cell-based, human
- experimentalContext: human
Hi, to clarify the labels: condition met covers growth inhibition (GI%) and cytotoxicity (negative values) from -70% upward, condition not met covers anything below -70%.

# smilesRepresentation, labelValue
data = [
    ("O=C(NCCCN1CCN(Cc2ccccc2)CC1)c1c(Cl)[nH]c2c1CCCc1ccccc1-2", "condition not met"),
    ("COc1ccccc1N1CCN(CCNC(=O)c2c(Cl)[nH]c3c2CCCc2ccccc2-3)CC1", "condition not met"),
    ("CCN1CCC[C@H]1CNC(=O)c1[nH]c2c(c1Cl)CCCc1ccccc1-2", "condition not met"),
    ("O=C(NCCN1CCN(c2ccc(Cl)c(Cl)c2)CC1)c1c(Cl)[nH]c2c1CCCc1ccccc1-2", "condition met"),
    ("O=C(NCCN1CCN(c2ccccc2)CC1)c1c(Cl)[nH]c2c1CCCc1ccccc1-2", "condition met"),
    ("COc1ccccc1N1CCN(CCNC(=O)c2[nH]c3c(c2Cl)CCCc2ccccc2-3)CC1", "condition met"),
    ("N#Cc1ccccc1N1CCN(CCNC(=O)c2c(Cl)[nH]c3c2CCCc2ccccc2-3)CC1", "condition met"),
    ("O=C(NCCCN1CCN(c2ccccc2)CC1)c1cc2c([nH]1)-c1ccccc1CCC2", "condition not met"),
    ("CCOc1ccccc1N1CCN(CCNC(=O)c2c(Cl)[nH]c3c2CCCc2ccccc2-3)CC1", "condition not met"),
    ("O=C(NCCN1CCN(c2ccc(Cl)cc2)CC1)c1c(Cl)[nH]c2c1CCCc1ccccc1-2", "condition met"),
    ("O=C(NCCN1CCN(c2ccccc2Cl)CC1)c1c(Cl)[nH]c2c1CCCc1ccccc1-2", "condition met"),
]

Ref: paper PMC12566046
